test target: Muscarinic acetylcholine receptor M3 (Homo sapiens) (UniProt P20309)
Sequence (P20309 whole entry, looked up): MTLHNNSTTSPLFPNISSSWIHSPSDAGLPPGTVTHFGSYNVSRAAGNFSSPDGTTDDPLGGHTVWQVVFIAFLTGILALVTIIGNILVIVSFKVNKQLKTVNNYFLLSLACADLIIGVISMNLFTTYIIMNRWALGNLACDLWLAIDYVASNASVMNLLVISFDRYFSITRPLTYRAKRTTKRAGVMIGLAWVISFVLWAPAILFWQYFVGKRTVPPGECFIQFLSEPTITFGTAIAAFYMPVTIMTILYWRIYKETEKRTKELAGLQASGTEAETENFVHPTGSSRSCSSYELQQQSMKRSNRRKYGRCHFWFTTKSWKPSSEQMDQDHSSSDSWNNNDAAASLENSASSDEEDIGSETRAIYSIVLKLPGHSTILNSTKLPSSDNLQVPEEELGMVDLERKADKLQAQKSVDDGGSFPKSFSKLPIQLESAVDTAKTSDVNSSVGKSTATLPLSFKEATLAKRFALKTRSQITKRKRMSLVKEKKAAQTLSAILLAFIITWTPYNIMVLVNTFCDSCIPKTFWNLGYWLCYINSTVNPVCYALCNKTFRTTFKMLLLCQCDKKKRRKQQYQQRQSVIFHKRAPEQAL
run description: Cooperativity with acetylcholine at human muscarinic acetylcholine receptor M3
Cooperativity listing for selected compounds.
quantity name: Cooperativity

| compound | result |
| --- | --- |
| O=C1C[C@@H]2OCC=C3C[N+]4(Cc5ccc([N+](=O)[O-])cc5)CC[C@]56c7ccccc7N1[C@H]5[C@H]2[C@H]3C[C@@H]64 (stereo partly specified) | 0.8 |
| COc1cc2c(cc1OC)[C@@]13CC[N+]4([O-])CC5=CCO[C@H]6CC(=O)N2[C@H]1[C@H]6[C@H]5C[C@@H]34 (stereo partly specified) | > 2 |
| C#CC[N+]12CC[C@@]34c5ccccc5N5C(=O)C[C@@H]6OCC=C(C1)[C@H](C[C@@H]32)[C@@H]6[C@H]54 (stereo partly specified) | < 0.2 |
| N#CC[N+]12CC[C@@]34c5ccccc5N5C(=O)C[C@@H]6OCC=C(C1)[C@H](C[C@@H]32)[C@@H]6[C@H]54 (stereo partly specified) | 0.8 |
| CCC[N+]12CC[C@@]34c5ccccc5N5C(=O)C[C@@H]6OCC=C(C1)[C@H](C[C@@H]32)[C@@H]6[C@H]54 (stereo partly specified) | < 0.2 |
| O=C1C[C@@H]2OCC=C3C[N+]4(CCc5ccccc5)CC[C@]56c7ccccc7N1[C@H]5[C@H]2[C@H]3C[C@@H]64 (stereo partly specified) | < 0.2 |

Provenance of the data: ChEMBL document CHEMBL1132569
